System: TNF-α
test description: Inhibition of TNF-α production by stimulated human peripheral blood leukocytes in vitro
Format: cell-based
cond: Homo sapiens, Leukocyte, 10 μM; LPS-stimulated PBL; read-out: Percentage of inhibition of TNF-α production
property name: inhibition at 10 µM (%)
Answer with a number only, understood to be in %.

CC[C@H]1OC(=O)[C@H](C)[C@@H](O[C@H]2C[C@@](C)(OC)[C@@H](OC(=O)CCN3CC(C)CC(C)C3)[C@H](C)O2)[C@H](C)[C@@H](O[C@@H]2O[C@H](C)C[C@H](N(C)C)[C@H]2O)[C@](C)(OC)C[C@@H](C)C(=O)N[C@H](C)[C@@H](O)[C@]1(C)O (stereo partly shown) = 15
CC[C@H]1OC(=O)[C@H](C)[C@@H](O[C@H]2C[C@@](C)(OC)[C@@H](OCCCN)[C@H](C)O2)[C@H](C)[C@@H](O[C@@H]2O[C@H](C)C[C@H](N(C)C)[C@H]2O)[C@](C)(O)C[C@@H](C)CN(C)[C@H](C)[C@H]2OC(=O)O[C@@]21C [Example 51C] = 5
CC[C@H]1OC(=O)[C@H](C)[C@@H](O[C@H]2C[C@@](C)(OC)[C@@H](OC(=O)CCN3CCN(CCN(C)C)CC3)[C@H](C)O2)[C@H](C)[C@@H](O[C@@H]2O[C@H](C)C[C@H](N(C)C)[C@H]2O)[C@](C)(OC)C[C@@H](C)C(=O)N[C@H](C)[C@@H](O)[C@]1(C)O = 13
CC[C@H]1OC(=O)[C@H](C)C(O[C@H]2C[C@@](C)(OC)[C@@H](OC(=O)CCN(CC)CC)[C@H](C)O2)[C@H](C)[C@@H](O[C@@H]2O[C@H](C)C[C@H](N(C)C)[C@H]2O)[C@](C)(OC)C[C@@H](C)C(=O)[C@H](C)[C@H](O)[C@]1(C)O (stereo partly shown) = 69
CC[C@H]1OC(=O)[C@H](C)[C@@H](O[C@H]2C[C@@](C)(OC)[C@@H](OC(=O)CCNC(C)C)[C@H](C)O2)[C@H](C)[C@@H](O[C@@H]2O[C@H](C)C[C@H](N(C)C)[C@H]2O)[C@](C)(OC)C[C@@H](C)C(=O)N[C@H](C)[C@@H](O)[C@]1(C)O = 0

Ask | Dear colleague, please send me the reported inhibition at 10 µM for "CC[C@H]1OC(=O)[C@H](C)[C@@H](O[C@H]2C[C@@](C)(OC)[C@@H](OC(=O)CCN(CC)CC)[C@H](C)O2)[C@H](C)[C@@H](O[C@@H]2O[C@H](C)C[C@H](N(C)C)[C@H]2O)[C@](C)(OC)C[C@@H](C)C(=O)[C@H](C)[C@H]2N(C)C(=O)O[C@]12C" when you can.
Reply | 49

Ask | Dear colleague, please send me the reported inhibition at 10 µM for CC[C@H]1OC(=O)[C@H](C)[C@@H](O[C@H]2C[C@@](C)(OC)[C@@H](O)[C@H](C)O2)[C@H](C)[C@@H](O[C@@H]2O[C@H](C)C[C@H](N(C)C)[C@H]2O)[C@](C)(OC)C[C@@H](C)C(=O)[C@H](C)[C@@H](O)[C@]1(C)O [clarithromycin, reference compound] when you can.
Reply | 0
